Catalogue of IC50 readings, one per entry.
MEASURED TARGET: human HSV DNA polymerase UL30 (Human herpesvirus 1 (strain 17) (HHV-1) (Human herpes simplex virus 1), UniProt P04293)
EXPERIMENT NOTES: biochemical
TEST CONTEXT: 625 pM HSV polymerase, 20 minutes at room temperature; read-out: HSV-polymerase Biochemical IC50
REPORTED PROPERTY: IC50 (nM)

INSERT INTO measurements (query_smiles, test_value) VALUES
  ('Cn1nc(-c2cn(Cc3ccc(C#N)cc3)nn2)c2c1C(=O)N(CC1(S(=O)(=O)C3CC3)CC1)CC2', 141),
  ('Cn1nc(C(=O)NCc2ccc(C#N)cc2)c2c1C(=O)N(CC1(S(=O)(=O)N3CCC(O)CC3)CC1)CC2', 136),
  ('N#Cc1ccc(CNC(=O)c2nn(CCCO)c3c2CCN(CC2(S(=O)(=O)C4CC4)CC2)C3=O)cc1', 91),
  ('Cn1nc(-c2nnn(Cc3ccc(C#N)cc3)n2)c2c1C(=O)N(CC1(S(=O)(=O)C3CC3)CC1)CC2', 86),
  ('Cn1nc(C(=O)NCc2ccc(C#N)cc2)c2c1C(=O)N(CC1(S(=O)(=O)N3C[C@H](N)[C@@H](O)C3)CC1)CC2', 147);
